Source of measurements: ChEMBL document CHEMBL1221277

System: Acetylcholinesterase (Electrophorus electricus) | Read-out: IC50
Sequence (O42275 whole entry): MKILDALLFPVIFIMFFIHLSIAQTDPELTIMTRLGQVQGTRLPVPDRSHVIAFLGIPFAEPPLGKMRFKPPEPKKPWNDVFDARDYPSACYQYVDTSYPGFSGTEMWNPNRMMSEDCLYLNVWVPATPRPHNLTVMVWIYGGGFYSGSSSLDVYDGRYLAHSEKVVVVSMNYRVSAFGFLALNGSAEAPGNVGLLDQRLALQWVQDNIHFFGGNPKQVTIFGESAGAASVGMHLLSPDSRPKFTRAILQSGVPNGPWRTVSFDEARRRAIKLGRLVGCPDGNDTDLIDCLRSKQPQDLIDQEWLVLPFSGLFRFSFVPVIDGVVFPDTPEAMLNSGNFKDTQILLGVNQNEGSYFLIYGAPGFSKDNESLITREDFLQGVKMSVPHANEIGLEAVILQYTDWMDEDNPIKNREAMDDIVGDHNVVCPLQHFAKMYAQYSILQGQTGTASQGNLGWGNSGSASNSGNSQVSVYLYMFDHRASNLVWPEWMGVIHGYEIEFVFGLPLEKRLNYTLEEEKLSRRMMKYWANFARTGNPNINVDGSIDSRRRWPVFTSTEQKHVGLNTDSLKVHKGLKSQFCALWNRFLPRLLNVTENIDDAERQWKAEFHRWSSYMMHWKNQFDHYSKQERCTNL
Quick note: give the figure in nM, leave out the unit.

Kindly state the measured IC50 obtained for CCOc1ccc2c(c1)O/C(=C\c1cc[n+](Cc3ccccc3)cc1)C2=O with Acetylcholinesterase (Electrophorus electricus).
63

Find IC50 (Acetylcholinesterase (Electrophorus electricus)) for the entry CCOc1ccc2c(c1)O/C(=C\c1cc[n+](Cc3ccc(F)cc3)cc1)C2=O
51

====

For Acetylcholinesterase (Electrophorus electricus), measured IC50 is reported for the entries below.
Please respond with the number in nM and leave the unit unwritten.

1) CCOc1ccc2c(c1)O/C(=C\c1cc[n+](Cc3ccccc3C)cc1)C2=O
546
2) CCOc1ccc2c(c1)O/C(=C\c1cc[n+](Cc3cccc(C)c3)cc1)C2=O
399
3) CCOc1ccc2c(c1)O/C(=C\c1cc[n+](Cc3cccc(F)c3)cc1)C2=O
48
4) CCOc1ccc2c(c1)O/C(=C\c1cc[n+](Cc3ccc(C)cc3)cc1)C2=O
790
5) CCCOc1ccc2c(c1)O/C(=C\c1cc[n+](Cc3ccccc3)cc1)C2=O
80

Recorded IC50 for COc1ccc2c(c1)O/C(=C\c1cc[n+](Cc3ccc(F)cc3)cc1)C2=O with Acetylcholinesterase (Electrophorus electricus), please?
22

Given the entry COc1ccc2c(c1)O/C(=C\c1cc[n+](Cc3ccc(C)cc3)cc1)C2=O , what IC50 was observed with Acetylcholinesterase (Electrophorus electricus)?
475
